SYSTEM TESTED: IDO (Homo sapiens, UniProt P14902)
Sequence (P14902 whole entry): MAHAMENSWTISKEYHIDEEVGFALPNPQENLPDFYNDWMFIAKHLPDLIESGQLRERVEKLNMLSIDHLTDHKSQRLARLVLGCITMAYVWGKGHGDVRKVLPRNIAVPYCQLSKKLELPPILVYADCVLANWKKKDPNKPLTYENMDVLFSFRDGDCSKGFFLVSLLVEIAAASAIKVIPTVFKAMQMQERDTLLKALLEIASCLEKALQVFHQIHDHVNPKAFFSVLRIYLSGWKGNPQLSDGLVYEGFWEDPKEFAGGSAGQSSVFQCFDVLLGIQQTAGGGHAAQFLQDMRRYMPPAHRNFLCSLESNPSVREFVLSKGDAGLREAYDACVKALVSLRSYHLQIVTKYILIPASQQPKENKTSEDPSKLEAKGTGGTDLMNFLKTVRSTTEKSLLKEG
TEST NAME: LLE_IDO_ABS_DR (IDO assay)
Consider the following compounds and their measured pIC50 readings.
Scale: pIC50 equals -log10([C]), with [C] in mol/L.

1. Cc1ccc(NC(=O)Nc2cc(-c3ccccc3-c3nnn[nH]3)ccc2N(CCC(C)C(F)(F)F)CC(C)C)cc1 (stereo not shown) ... 8.00

Exercise: For the compound CC(C)CN(CC(C)C)c1ccc(-c2ccccc2-c2nnn[nH]2)cc1NC(=O)Nc1ccc2ncsc2c1 , give its reported pIC50.
Key: 6.82

Exercise: For O=C(Nc1cc(-c2ccccc2-c2nnn[nH]2)ccc1N(CCC(F)(F)F)Cc1ccc(F)cc1)Nc1ccccc1C(F)(F)F , write its pIC50.
Key: 5.88

Exercise: Report measured pIC50; entry is Cc1ccc(NC(=O)Nc2cc(-c3ccccc3-c3nnn[nH]3)ccc2N2CC(C)CC(C)C2)cc1 (stereo not shown)
Key: 6.10

Exercise: Using known records, supply pIC50 for O=C(Nc1ccc(OC(F)(F)F)cc1)Nc1cc(-c2ccccc2-c2nnn[nH]2)ccc1N(CCC(F)(F)F)Cc1ccc(C(F)(F)F)cc1
Key: 6.59

Exercise: Given Cc1ccc(NC(=O)Nc2cc(-c3ccc(F)cc3C(=O)O)ccc2N(CC(C)C)CC(C)C)cc1 , respond with its pIC50.
Key: 6.96

Exercise: State, in one line, measured pIC50 of Cc1ccc(NC(=O)Nc2cc(-c3cc(F)ccc3C(=O)O)cc(Cl)c2N(CC(C)C)CC(C)C)cc1
Key: 8.75
